Cited source for all entries: patent EP0595557A1

Exercise: state measured kinact/KI for each of the compounds provided.
- Experimental target: Human Polymorphonuclear Leukocyte Elastase (Homo sapiens, UniProt P08246)
- Construct: Crude extract of human polymorphonuclear leukocytes (PMN) containing elastase activity; from tissue; host or cells: human polymorphonuclear leukocytes (crude extract)
- Sequence (P08246 30-267): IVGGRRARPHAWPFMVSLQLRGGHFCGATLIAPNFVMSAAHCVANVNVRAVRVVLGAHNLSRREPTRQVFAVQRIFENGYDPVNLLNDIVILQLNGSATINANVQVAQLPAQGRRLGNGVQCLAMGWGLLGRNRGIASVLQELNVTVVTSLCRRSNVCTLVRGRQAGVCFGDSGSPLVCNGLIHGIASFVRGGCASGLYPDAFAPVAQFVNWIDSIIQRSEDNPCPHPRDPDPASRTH
- Assay protocol: Enzyme assay for inhibition of human polymorphonuclear leukocyte elastase via hydrolysis of Boc-AAPAN or Boc-AAPVN
- Type: biochemical
- Condition set: pH 7.5, second order rate constant for inactivation of the enzyme, expressed to the nearest thousand, read-out: Kobs/[I]
Return type: number; implicit unit M⁻¹ s⁻¹.

Entry CCC[C@@H](NC(=O)N1C(=O)C(CC)(CC)[C@@H]1Oc1ccc(C(=O)N2CCNCC2)cc1)c1ccc2c(c1)OCO2 [Compound 265a] , system Human Polymorphonuclear Leukocyte Elastase (Homo sapiens, UniProt P08246): what kinact/KI was measured?
3.25e+06

Request: kinact/KI, test system Human Polymorphonuclear Leukocyte Elastase (Homo sapiens, UniProt P08246), entry CCC[C@@H](NC(=O)N1C(=O)C(CC)(CC)[C@@H]1Oc1ccc(C(=O)OCCN2CCN(C(=O)OCc3ccccc3)CC2)cc1)c1ccc(C)cc1 [Compound 22]
4.12e+06

Recorded kinact/KI for CCC[C@@H](NC(=O)N1C(=O)C(CC)(CC)[C@@H]1Oc1ccc(C(=O)N(C)Cc2ccccc2)cc1)c1ccc(C)cc1 [Compound 188] with Human Polymorphonuclear Leukocyte Elastase (Homo sapiens, UniProt P08246), please?
1.84e+06

Recall the recorded kinact/KI for CCC[C@@H](NC(=O)N1C(=O)C(CC)(CC)[C@@H]1Oc1ccc(C(=O)N(C)CCN(C)C(C)=O)cc1)c1ccc(C)cc1 [Compound 105] with Human Polymorphonuclear Leukocyte Elastase (Homo sapiens, UniProt P08246) and state it.
2.4e+06

Return kinact/KI measured with Human Polymorphonuclear Leukocyte Elastase (Homo sapiens, UniProt P08246) given this compound: CCC[C@@H](NC(=O)N1C(=O)C(CC)(CC)[C@@H]1Oc1ccc(C(=O)N(C)CCCN(C)C)cc1)c1ccc(C)cc1 [Compound 83]
1.8e+06

Any idea what kinact/KI came out for CCCCN(C)C(=O)c1ccc(O[C@@H]2N(C(=O)N[C@H](CCC)c3ccc(CC)c(C(=O)N4CCOCC4)c3)C(=O)C2(CC)CC)cc1 [Compound 273] on Human Polymorphonuclear Leukocyte Elastase (Homo sapiens, UniProt P08246)?
3.26e+06

// lookup kinact/KI | system=Human Polymorphonuclear Leukocyte Elastase (Homo sapiens, UniProt P08246) | key= CCC[C@@H](NC(=O)N1C(=O)C(CC)(CC)[C@@H]1Oc1ccc(C(=O)N(C)CCN(C)CC2CC2)cc1)c1ccc(C)cc1 [Compound 185]
1.79e+06

Observed kinact/KI on Human Polymorphonuclear Leukocyte Elastase (Homo sapiens, UniProt P08246) for CCC[C@@H](NC(=O)N1C(=O)C(CC)(CC)[C@@H]1Oc1ccc(CC(=O)OCCCN(C)C)cc1)c1ccc(C)cc1 [Compound 33] , please.
1.15e+06

Record CCC[C@@H](NC(=O)N1C(=O)C(CC)(CC)[C@@H]1Oc1ccc(C(=O)N2CCN(c3ccc(F)cc3)CC2)cc1)c1ccc(C)cc1 [Compound 243] : what is its kinact/KI with Human Polymorphonuclear Leukocyte Elastase (Homo sapiens, UniProt P08246)?
7.49e+06

So what kinact/KI did CCC[C@@H](NC(=O)N1C(=O)C(CC)(CC)[C@@H]1Oc1ccc(C(=O)N(C)CCN(C)Cc2ccc(C(F)(F)F)cc2)cc1)c1ccc(C)cc1 [Compound 180] get with Human Polymorphonuclear Leukocyte Elastase (Homo sapiens, UniProt P08246)?
905000

Form field - read-out: kinact/KI; system: Human Polymorphonuclear Leukocyte Elastase (Homo sapiens, UniProt P08246); submitted item: CCC[C@@H](NC(=O)N1C(=O)C(CC)(CC)[C@@H]1Oc1ccc(CC(=O)N(CCO)CCO)cc1)c1ccc(C)cc1 [Compound 40]
1.24e+06

Lab note: need kinact/KI for CCC[C@@H](NC(=O)N1C(=O)C(CC)(CC)[C@@H]1Oc1ccc(C(=O)N(C)CCN(C)C)cc1)c1ccc(C(=O)N(C)C)cc1 [Compound 286] on Human Polymorphonuclear Leukocyte Elastase (Homo sapiens, UniProt P08246), anyone have it?
551000

Form field: kinact/KI recorded for CCC[C@@H](NC(=O)N1C(=O)C(CC)(CC)[C@@H]1Oc1ccc(C(=O)NCCN2CCOCC2)cc1)c1ccc(C)cc1 [Compound 78] with Human Polymorphonuclear Leukocyte Elastase (Homo sapiens, UniProt P08246) (enter value)
1.84e+06

Find kinact/KI (Human Polymorphonuclear Leukocyte Elastase (Homo sapiens, UniProt P08246)) for the entry CCC[C@@H](NC(=O)N1C(=O)C(CC)(CC)[C@@H]1Oc1ccc(CC(=O)OCCN(C)Cc2ccccc2)cc1)c1ccc(C)cc1 [Compound 39]
751000

Human Polymorphonuclear Leukocyte Elastase (Homo sapiens, UniProt P08246) / kinact/KI / CCC[C@@H](NC(=O)N1C(=O)C(CC)(CC)[C@@H]1Oc1ccc(C(=O)N2CCOCC2)cc1)c1ccc2c(c1)OCO2 [Compound 265d] : value?
3.7e+06

Query for Human Polymorphonuclear Leukocyte Elastase (Homo sapiens, UniProt P08246): what kinact/KI does the record show for CCC[C@@H](NC(=O)N1C(=O)C(CC)(CC)[C@@H]1Oc1ccc(C(=O)NC)cc1)c1ccc(C)cc1 [Compound 198] ?
1.82e+06

# value lookup — system Human Polymorphonuclear Leukocyte Elastase (Homo sapiens, UniProt P08246), readout kinact/KI, item CCC[C@@H](NC(=O)N1C(=O)C(CC)(CC)[C@@H]1Oc1ccc(C(=O)N(C)c2ccc(C(=O)O)cc2)cc1)c1ccc(C)cc1 [Compound 175]
1.06e+06

Test system Human Polymorphonuclear Leukocyte Elastase (Homo sapiens, UniProt P08246); read-out kinact/KI; what value for CCC[C@@H](NC(=O)N1C(=O)C(CC)(CC)[C@@H]1Oc1ccc(C(=O)N(C)C2CCN(Cc3ccccc3)CC2)cc1)c1ccc(C)cc1 [Compound 208] ?
1.95e+06
